Experiment: Tmax in Sprague-Dawley rat at 2 mg/kg, iv measured after 24 hrs by LC-MS/MS analysis
Assay type: ADME, organism-based
Conditions: in vivo
Outcome measure: Tmax

Smiles text: COC(=O)N[C@H](C(=O)N1CCC[C@H]1c1ncc(-c2ccc(C#CC#Cc3cnc([C@@H]4CCCN4C(=O)[C@H](NC(=O)OC)c4ccccc4)[nH]3)c(-c3ccccc3)c2)[nH]1)C(C)C.Cl.Cl
Tmax: 4.98 min
//
Smiles text: COC(=O)N[C@H](C(=O)N1CCC[C@H]1c1ncc(-c2ccc(C#CC#Cc3cnc([C@@H]4CCCN4C(=O)[C@H](NC(=O)OC)c4ccccc4)[nH]3)c(-c3cccc(F)c3F)c2)[nH]1)C(C)C.Cl.Cl
Tmax: 4.98 min

Pending compound:
Query block: Which Tmax value belongs to COC(=O)N[C@H](C(=O)N1CCC[C@H]1c1ncc(-c2ccc(C#CC#Cc3cnc([C@@H]4CCCN4C(=O)[C@H](NC(=O)OC)c4ccccc4)[nH]3)c(-c3cccc(F)c3F)c2)[nH]1)C(C)C ?
Result block: 4.98 min
